Hello, the source for this data is BigSolDB 2.1, in case you need it.

conditionSummary: in propylene glycol, 313.2 K
outcomeMeasure: solubility (mole fraction)

Task: Which value of solubility (mole fraction) has been reported for CC(=O)N1CCN(c2ccc(OC[C@@H]3CO[C@@](Cn4ccnc4)(c4ccc(Cl)cc4Cl)O3)cc2)CC1 (racemic) in the records?
Output: 0.00562

====

conditionSummary: in isopropanol, 303.2 K
outcomeMeasure: solubility (mole fraction)
Respond using a number only.

Task: Which value of solubility (mole fraction) has been reported for CC(=O)N1CCN(c2ccc(OC[C@@H]3CO[C@@](Cn4ccnc4)(c4ccc(Cl)cc4Cl)O3)cc2)CC1 (racemic) in the records?
Output: 0.00136

====

conditionSummary: in propylene glycol, 293.2 K
outcomeMeasure: solubility (mole fraction)
Respond using a number only.

Task: Which value of solubility (mole fraction) has been reported for CC(=O)N1CCN(c2ccc(OC[C@@H]3CO[C@@](Cn4ccnc4)(c4ccc(Cl)cc4Cl)O3)cc2)CC1 (racemic) in the records?
Output: 0.00148

====

conditionSummary: in propylene glycol, 303.2 K
outcomeMeasure: solubility (mole fraction)
Respond using a number only.

Task: Which value of solubility (mole fraction) has been reported for CC(=O)N1CCN(c2ccc(OC[C@@H]3CO[C@@](Cn4ccnc4)(c4ccc(Cl)cc4Cl)O3)cc2)CC1 (racemic) in the records?
Output: 0.00264

====

conditionSummary: in isopropanol, 293.2 K
outcomeMeasure: solubility (mole fraction)

Task: Which value of solubility (mole fraction) has been reported for CC(=O)N1CCN(c2ccc(OC[C@@H]3CO[C@@](Cn4ccnc4)(c4ccc(Cl)cc4Cl)O3)cc2)CC1 (racemic) in the records?
Output: 0.000774

====

conditionSummary: in isopropanol, 298.2 K
outcomeMeasure: solubility (mole fraction)
Respond using a number only.

Task: Which value of solubility (mole fraction) has been reported for CC(=O)N1CCN(c2ccc(OC[C@@H]3CO[C@@](Cn4ccnc4)(c4ccc(Cl)cc4Cl)O3)cc2)CC1 (racemic) in the records?
Output: 0.00102

====

conditionSummary: in isopropanol, 308.2 K
outcomeMeasure: solubility (mole fraction)
Respond using a number only.

Task: Which value of solubility (mole fraction) has been reported for CC(=O)N1CCN(c2ccc(OC[C@@H]3CO[C@@](Cn4ccnc4)(c4ccc(Cl)cc4Cl)O3)cc2)CC1 (racemic) in the records?
Output: 0.00204

====

conditionSummary: in isopropanol, 313.2 K
outcomeMeasure: solubility (mole fraction)
Respond using a number only.

Task: Which value of solubility (mole fraction) has been reported for CC(=O)N1CCN(c2ccc(OC[C@@H]3CO[C@@](Cn4ccnc4)(c4ccc(Cl)cc4Cl)O3)cc2)CC1 (racemic) in the records?
Output: 0.00291
